Give measured pIC50 for each item. Keep answers brief.
Experimental System: PI3Kδ (p110δ/p85α) (Homo sapiens (Human), UniProt O00329)
Sequence (O00329 whole entry): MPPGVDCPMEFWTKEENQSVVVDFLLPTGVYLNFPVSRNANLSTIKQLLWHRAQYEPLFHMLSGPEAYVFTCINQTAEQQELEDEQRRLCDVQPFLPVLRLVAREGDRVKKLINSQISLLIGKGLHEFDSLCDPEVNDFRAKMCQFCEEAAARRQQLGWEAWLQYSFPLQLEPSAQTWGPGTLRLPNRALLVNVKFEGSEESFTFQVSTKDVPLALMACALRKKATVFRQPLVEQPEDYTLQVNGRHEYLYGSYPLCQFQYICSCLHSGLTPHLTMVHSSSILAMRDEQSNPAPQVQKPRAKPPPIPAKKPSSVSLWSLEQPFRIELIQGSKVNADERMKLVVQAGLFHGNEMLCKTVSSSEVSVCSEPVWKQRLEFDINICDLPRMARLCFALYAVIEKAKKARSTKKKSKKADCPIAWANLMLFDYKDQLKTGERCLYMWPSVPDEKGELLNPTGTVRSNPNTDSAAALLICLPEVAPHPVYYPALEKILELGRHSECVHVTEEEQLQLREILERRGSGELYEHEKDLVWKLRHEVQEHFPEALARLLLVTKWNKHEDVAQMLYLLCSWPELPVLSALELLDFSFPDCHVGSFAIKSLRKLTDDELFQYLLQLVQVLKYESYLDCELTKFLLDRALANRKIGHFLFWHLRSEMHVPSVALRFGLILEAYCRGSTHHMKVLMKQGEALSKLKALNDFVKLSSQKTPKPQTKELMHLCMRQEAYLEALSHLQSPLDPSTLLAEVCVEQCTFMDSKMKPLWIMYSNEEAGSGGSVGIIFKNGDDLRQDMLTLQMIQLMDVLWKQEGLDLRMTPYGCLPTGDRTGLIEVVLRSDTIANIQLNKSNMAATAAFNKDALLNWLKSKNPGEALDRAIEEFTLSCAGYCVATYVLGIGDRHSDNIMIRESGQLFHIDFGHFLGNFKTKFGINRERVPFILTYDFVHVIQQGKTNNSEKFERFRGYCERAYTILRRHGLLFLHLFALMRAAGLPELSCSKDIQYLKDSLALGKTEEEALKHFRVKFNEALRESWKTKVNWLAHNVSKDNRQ
Sequence (P27986 whole entry partner): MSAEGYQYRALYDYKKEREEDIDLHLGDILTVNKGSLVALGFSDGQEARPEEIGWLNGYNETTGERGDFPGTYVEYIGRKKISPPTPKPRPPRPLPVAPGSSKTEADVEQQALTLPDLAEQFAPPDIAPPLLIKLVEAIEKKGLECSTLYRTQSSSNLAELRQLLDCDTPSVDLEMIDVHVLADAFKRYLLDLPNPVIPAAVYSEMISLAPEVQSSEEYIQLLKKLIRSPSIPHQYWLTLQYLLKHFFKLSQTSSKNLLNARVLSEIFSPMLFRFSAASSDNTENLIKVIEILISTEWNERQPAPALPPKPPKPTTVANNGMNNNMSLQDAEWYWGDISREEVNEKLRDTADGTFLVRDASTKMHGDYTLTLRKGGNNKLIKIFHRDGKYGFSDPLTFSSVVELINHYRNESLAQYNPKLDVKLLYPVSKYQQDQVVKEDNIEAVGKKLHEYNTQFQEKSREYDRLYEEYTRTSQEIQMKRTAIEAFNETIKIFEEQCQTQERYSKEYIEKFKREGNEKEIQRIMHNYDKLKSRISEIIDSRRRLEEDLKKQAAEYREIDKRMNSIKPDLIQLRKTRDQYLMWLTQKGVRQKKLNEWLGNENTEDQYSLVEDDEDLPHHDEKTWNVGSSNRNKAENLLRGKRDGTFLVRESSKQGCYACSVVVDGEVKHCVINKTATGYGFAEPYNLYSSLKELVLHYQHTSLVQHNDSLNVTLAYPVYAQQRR
Assay Procedure: PI3Kδ scintillation proximity assay (Example A3)
Run Parameters: 20 μM ATP, 20 μM PIP2, 4 nM PI3Kδ; read-out: PI3Kδ SPA IC50
pIC50: −log10 of the molar value.

Q. Return pIC50 (reported value) for this compound: CCOc1c(C(C)n2nc(-c3cccc(F)c3)c3c(N)ncnc32)cc(Cl)c(C)c1-c1ccc(C(=O)N(C)C)nc1 (racemic) [Example 47, bis(trifluoroacetate)]
A. ≥ 8.00

Q. Return pIC50 (reported value) for this compound: CCOc1c(C(C)n2nc(C)c3c(N)ncnc32)cc(Cl)c(C#N)c1C1CN(CC2CCOC2)C1 (single isomer, unassigned)
A. ≥ 8.00

Q. Return pIC50 (reported value) for this compound: CCOc1c(C(C)n2nc(C(F)F)c3c(N)ncnc32)cc(Cl)c(F)c1C1CN(CC(C)(C)O)C1 (racemic)
A. ≥ 8.00

Field: pIC50. Fill in for each record below.
1. COc1c(C(C)n2ncc3c(N)ncnc32)cc(Cl)c(C)c1-c1ccnc(C(=O)N(C)C)c1 (racemic)
2. CCOc1c(C(C)n2nc(-c3cnn(C)c3)c3c(N)ncnc32)cc(Cl)c(C)c1-c1ccc(C(=O)N(C)C)nc1 (racemic) [Example 49, bis(trifluoroacetate)]

A.
["7.30 to 8.00", "≥ 8.00"]
